These data points were gathered from patent US20240034729A9.

- Subject of test: hP2X3 (human purinergic P2X receptor subtype 3) (Homo sapiens (Human), UniProt P56373)
- Sequence (P56373 whole entry): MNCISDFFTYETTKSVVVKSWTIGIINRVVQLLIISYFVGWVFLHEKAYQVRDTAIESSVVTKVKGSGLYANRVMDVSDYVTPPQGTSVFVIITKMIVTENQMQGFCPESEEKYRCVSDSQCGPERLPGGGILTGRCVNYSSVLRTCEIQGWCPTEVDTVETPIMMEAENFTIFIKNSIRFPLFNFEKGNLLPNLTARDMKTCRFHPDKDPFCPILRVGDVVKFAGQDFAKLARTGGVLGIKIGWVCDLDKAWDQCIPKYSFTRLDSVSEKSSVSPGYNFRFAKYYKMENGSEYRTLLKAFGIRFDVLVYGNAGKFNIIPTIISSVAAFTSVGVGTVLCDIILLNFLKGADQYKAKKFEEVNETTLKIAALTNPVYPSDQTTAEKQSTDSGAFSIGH
- Assay summary: FLIPR calcium assay, hP2X3 expressed in HEK293 cells
- Assay type: cell-based
- Condition details: read-out: P2X3 IC50
Value kind: IC50

Compound: COC(=O)N1CCO[C@@H](Cc2c(-c3c(F)cc(S(C)(=O)=O)cc3F)nc3cc(C)ccn23)C1
IC50: > 10 µM

The compound identified as COC(=O)N1CCO[C@@H](Cc2c(-c3c(F)cc(-c4ccccn4)cc3F)nc3cc(C)ccn23)C1 registered its IC50 at 0.01 to 0.05 µM

The compound COC(=O)N1CCO[C@@H](Cc2c(-c3c(F)cc(NS(C)(=O)=O)cc3F)nc3cc(C)ccn23)C1 showed IC50 equal to < 0.01 µM

----------
- Subject of test: hP2X3 (human purinergic P2X receptor subtype 3) (Homo sapiens (Human), UniProt P56373)
- Assay summary: FLIPR calcium assay, hP2X3 expressed in HEK293 cells
- Type: cell-based
- Condition details: read-out: P2X3 IC50
Known IC50 of a selection of compounds

Past entries and their recorded results:
Compound structure: CC(=O)N1CCO[C@@H](Cc2c(-c3c(F)cc(-c4nnc[nH]4)cc3F)nc3cc(C)ccn23)C1
IC50: < 0.01 µM
--
Compound structure: COC(=O)N1CCO[C@@H](Cc2c(-c3c(F)cc(NC(=O)CC(C)(C)O)cc3F)nc3cc(C)ccn23)C1
IC50: 0.01 to 0.05 µM

Field: next compound
// recorded IC50 for COC(=O)N1CCO[C@@H](Cc2c(-c3c(F)cc(-c4ncco4)cc3F)nc3cc(CF)ccn23)C1 : 0.05 to 0.2 µM

----------
- Subject of test: hP2X3 (human purinergic P2X receptor subtype 3) (Homo sapiens (Human))
- Assay summary: FLIPR calcium assay, hP2X3 expressed in HEK293 cells
- Format: cell-based
- Condition details: read-out: P2X3 IC50
Value kind: IC50

Compound structure: COC(=O)N1CCO[C@@H](Cc2c(-c3c(F)cc(-n4cc[nH]c4=O)cc3F)nc3cc(C)ccn23)C1
Subject of test: hP2X3 (human purinergic P2X receptor subtype 3) (Homo sapiens (Human))
Value kind: IC50
Measured result: 10 to 50 nM

Compound structure: CNC(=O)c1cc(F)c(-c2oc3cc(C)ccc3c2C[C@H]2CN(C(=O)OC)CCO2)c(F)c1
Subject of test: hP2X3 (human purinergic P2X receptor subtype 3) (Homo sapiens (Human))
Value kind: IC50
Measured result: < 10 nM

For record CNC1(c2cc(F)c(-c3nc4cc(C)ccn4c3C[C@H]3CN(C(=O)OC)CCO3)c(F)c2)COC1 the listed IC50 is 10 to 50 nM

Short answer for COC(=O)N1CCO[C@@H](Cc2c(-c3c(F)cc(NC(=O)CC4(C#N)CC4)cc3F)nc3cc(C)ccn23)C1 : IC50 was 10 to 50 nM

Sample COC(=O)N1CCO[C@@H](Cc2c(C3CCN(C(C)=O)CC3)nc3cc(C)ccn23)C1 ; IC50 observed: 10 to 50 nM

----------
- Subject of test: hP2X3 (human purinergic P2X receptor subtype 3) (Homo sapiens (Human), UniProt P56373)
- Assay summary: FLIPR calcium assay, hP2X3 expressed in HEK293 cells
- Type: cell-based
- Condition details: read-out: P2X3 IC50
pIC50: −log10 of the molar value.
Value kind: pIC50

Form: molecule = COC(=O)N1CCO[C@@H](Cc2c(-c3c(F)cc(-n4ccc(C(C)(C)O)c4)cc3F)nc3cc(C)ccn23)C1 ; pIC50 = > 8.00

Sure, the documented pIC50 for COC(=O)N1CCO[C@@H](Cc2c(-c3c(F)cc(NC(C)=O)cc3F)nc3cc(CF)ccn23)C1 is > 8.00

// field: pIC50; key: CCC(=O)N1CCO[C@@H](Cc2c(-c3c(F)cc(NC(C)=O)cc3F)nc3cc(C)ccn23)C1 ; value = > 8.00

pIC50 reported for this molecule COC(=O)N1CCO[C@@H](Cc2c(-c3c(F)cc(NC(=O)c4ccccc4)cc3F)nc3cc(C)ccn23)C1 : 6.70 to 7.30

What the record says about COC(=O)N1CCO[C@@H](Cc2c(-c3c(F)cc(-n4ccoc4=O)cc3F)nc3cc(C)ccn23)C1 : pIC50 is 7.30 to 8.00

Consider COC(=O)N1CCO[C@@H](Cc2c(-c3c(F)cc(NC(=O)CC(C)(C)C(=O)O)cc3F)nc3cc(C)ccn23)C1 . Its measured pIC50 is > 8.00
